Give IC50 for every item shown.
# testTarget: BCL-2 (Homo sapiens)
# Sequence (P10415 1-211): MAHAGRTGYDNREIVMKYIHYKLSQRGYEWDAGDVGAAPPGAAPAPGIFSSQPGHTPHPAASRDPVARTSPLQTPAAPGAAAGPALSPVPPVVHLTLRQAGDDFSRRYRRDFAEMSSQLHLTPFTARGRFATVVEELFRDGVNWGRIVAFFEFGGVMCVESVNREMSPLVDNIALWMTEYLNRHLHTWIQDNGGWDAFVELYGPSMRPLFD
# experimentalProtocol: Protein-protein interaction assay BCL-2/Bad BH3 peptide, TR-FRET (BCL-2 assay, Assay 3)
# Format: binding
# measurementSetup: His-BCL-2 / Bad BH3 peptide, median

Answered examples (5):
compound="Cc1c2c(nn1C)CNCc1ccccc1Cn1c(C(=O)O)c(CCCOc3cccc4ccccc34)c3cccc-2c31 (single isomer, unassigned; enantiomer 1)" observationtype=IC50 recordedmeasurement="> 20 µM"
compound="Cc1c2c(nn1C)COCc1ccccc1Cn1c(C(=O)O)c(CCCOc3cccc4c3CCC4)c3ccc(F)c-2c31 (racemic)" observationtype=IC50 recordedmeasurement="> 20 µM"
compound="Cc1c2c(nn1C)COCc1ccccc1Cn1c(C(=O)O)c(CCCOc3cccc4c3CCCC4)c3ccc(F)c-2c31 (racemic)" observationtype=IC50 recordedmeasurement="> 20 µM"
compound="CCc1nn(C)c2c1-c1c(F)ccc3c(CCCOc4cccc5ccccc45)c(C(=O)O)n(c13)Cc1ccccc1COC2 (racemic)" observationtype=IC50 recordedmeasurement="≥ 20.5 µM"
compound="Cc1c2c(nn1C)COCc1ccccc1Cn1c(C(=O)O)c(CCCOc3cccc4ccccc34)c3cccc-2c31 (single isomer, unassigned; enantiomer 1)" observationtype=IC50 recordedmeasurement="> 20 µM"

Kindly consider the entry below.
// query Tell me the measured IC50 of Cc1c2c(nn1C)COCc1ncccc1Cn1c(C(=O)O)c(CCCOc3cccc4ccccc34)c3cccc-2c31 (single isomer, unassigned; enantiomer 1) , please.
// result > 20 µM
